target: Cyclin-dependent kinase 2 (Homo sapiens) (UniProt P24941); settings: at 1 µM;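 further: mean inhibition measured against the CDK2/cyclin E complex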
Consider the following molecules; for each one, report its inhibition.
Write the answer as a number in %, unit excluded.

Request: // query inhibition value for entry `COc1cccc(-n2cnc3c(N/N=C/c4ccncc4)ncnc32)c1`
Response: -2.32

Request: Requested field: inhibition. Item: `CCN(CC)Cc1ccc(Nc2nccc(-c3cnn4ncccc34)n2)cc1`
Response: 70.1

Request: Name the reported inhibition value associated with the molecule `CN(C)CCCNc1nccc(-c2c(-c3ccc(F)cc3)nn3cc(C(F)(F)F)ccc23)n1`
Response: 1.3

Request: inhibition lookup needed for `NC(=O)c1cc(-c2ccncc2)cc(-c2ccccc2)c1N` , thanks.
Response: 3.97

Request: Name the recorded inhibition for `Fc1ccc(-c2nc3n(c2-c2ccncc2)CCS3)cc1` .
Response: 0.29

Request: Look up inhibition for this molecule: `CCc1nccc2c1nc(-c1nonc1N)n2CC`
Response: 3.62

Request: What does the data say about its inhibition? Entry: `COc1cc(C)c(N(C)C(=O)CN(C)C)cc1Nc1nc(Nc2cccc(F)c2C(N)=O)c2cc[nH]c2n1`
Response: -2.88

Request: Consider the molecule shown here: `C/C(Nc1ccc(S(N)(=O)=O)cc1)=C1/C(=O)Nc2ccccc21` What is its recorded inhibition?
Response: 48.1

Request: Can you look up the measured inhibition of `NS(=O)(=O)c1ccc(N/N=C2\C(=O)Nc3ccc(C(=O)NCCCn4ccnc4)cc32)cc1` for me?
Response: 82.4

Request: Tell me the measured inhibition of `Fc1ccc(-c2ncn(C3CCNCC3)c2-c2ccnc(Oc3ccc(F)c(F)c3)n2)cc1` , please.
Response: 6.4

Request: Request the reported inhibition associated with `O=C1Nc2ccc(I)cc2C1=Cc1cc(Br)c(O)c(Br)c1`
Response: 3.35

Request: Entry `Cc1nnc(-c2ccc(C)c(-c3ccc(C(=O)NCc4ccc(Cl)cc4)cc3)c2)o1` has what inhibition?
Response: 0.03

Request: Any idea what its inhibition is? The molecule is `COc1cc(Nc2ncc(-c3ccccc3)o2)cc(OC)c1OC`
Response: 6.45

Request: Entry `O=C(NCC1CC1)c1ccc(-c2cccc(C(=O)NC3CC3)c2)cc1` has what inhibition?
Response: 2.72

Request: # input molecule: `O=C(Nc1n[nH]c2nc(-c3ccco3)ccc12)C1CC1` ; wanted: its inhibition
Response: 3.89

Request: Given the molecule `COc1cc2ncn(-c3cc(OCc4ccccc4C(F)(F)F)c(C(C)=O)s3)c2cc1OC` , what is its reported inhibition?
Response: 3.96

Request: Fill in the blank: the reported inhibition of `COc1ccc(-c2ccc3c(NC(=O)C4CC4)n[nH]c3n2)cc1` is ____.
Response: 4.59

Request: Would you kindly share the measured inhibition for `CCS(=O)(=O)c1ccc(OC)c(Nc2ncc(-c3cccc(-c4ccccc4F)c3)o2)c1` ?
Response: 3.78

Request: Need inhibition of `COc1cc(Nc2ncc3c(C)nc(-c4cccc(Oc5ccccc5)c4)n3n2)cc(OC)c1OC` , thanks.
Response: 3.13

Request: Could you tell me which inhibition is on file for `CCc1cccc(CC)c1/C=C/c1cncc(C(=O)NC)c1` ?
Response: 4.02

Request: Query (molecule): `COc1ccc(C2=C(N3CCc4ccccc43)C(=O)NC2=O)cc1` ; field requested: inhibition
Response: 6.31

Request: Which measured inhibition value corresponds to `O=C(Nc1ccc(Oc2ccc3[nH]c(NC(=O)c4ccccc4)nc3c2)cc1)Nc1cc(C(F)(F)F)ccc1F` ?
Response: 4.67

Request: Query (molecule): Nc1nccc(-c2c(-c3ccc(F)cc3)ncn2C2CCC(O)CC2)n1 (centres undefined) ; field requested: inhibition
Response: 1.24

Request: Record request: inhibition value, item `C[C@@H](Oc1cc(-n2cnc3ccc(OC4CCN(C)CC4)cc32)sc1C(N)=O)c1ccccc1Cl`
Response: 2.09

Request: Query (molecule): `CS(=O)(=O)CCNCc1ccc(-c2ccc3ncnc(Nc4ccc(OCc5ccccc5)c(Br)c4)c3c2)o1` ; field requested: inhibition
Response: -0.05

Request: Fill in the blank: the reported inhibition of COc1ccc2cc(-c3c(-c4ccncc4)nc(-c4ccc([S+](C)[O-])cc4C)n3C)ccc2c1 (centres undefined) is ____.
Response: 1.29

Request: // inhibition lookup, key: `Cc1ccc(NC(=O)c2ccoc2)cc1-c1ccc(C(=O)NCC2CC2)cc1`
Response: 3.1

Request: Recorded inhibition of `Fc1ccc(-c2ncn(CCCN3CCOCC3)c2-c2ccncc2)cc1` , please.
Response: 5.92

Request: Which value of inhibition has been reported for `Cc1ccc(C(=O)NC2CCC2)cc1-c1ccc(C(=O)NCC2CC2)cc1` in the records?
Response: 3.3

Request: Give its inhibition value. Item: `O=C(Nc1n[nH]c2cc(-c3cc(F)ccc3F)ccc12)C1CC1`
Response: 11.6

Request: Would you kindly share the measured inhibition for `C[C@@H](Oc1cc(-n2cnc3ccc(OCC4CCN(C)CC4)cc32)sc1C(N)=O)c1ccccc1Cl` ?
Response: 5.46

Request: Requested field: inhibition. Item: `COc1cc2ncn(-c3cc(OCCc4ccccc4)c(C(N)=O)s3)c2cc1OC`
Response: 5.22

Request: Report inhibition for `O=C1NC(=O)C(c2cccc(Cl)c2)=C1Nc1ccc(Cl)c(C(=O)O)c1` please.
Response: 1.86

Request: Request the reported inhibition associated with `Fc1ccc(-c2ncn(C3CCNCC3)c2-c2ccnc(Oc3ccc4c(c3)OCO4)n2)cc1`
Response: 6.04

Request: // returns reported inhibition for input `N#Cc1ccc(Oc2nccc(-c3c(-c4ccc(F)cc4)ncn3C3CCNCC3)n2)cc1`
Response: 2.89

Request: Bench note: what inhibition did `c1ccc(Oc2ccc(Nc3ncc(-c4ccccc4)o3)cc2)cc1` show?
Response: 3.16

Request: Can you look up the measured inhibition of `NC(=O)Cc1ccccc1Oc1nccc(-c2c(-c3ccc(F)cc3)ncn2C2CCNCC2)n1` for me?
Response: 2.1

Request: What does the record list as inhibition for `COc1ccc2ncn(-c3cc(O[C@H](C)c4ccccc4Cl)c(C(N)=O)s3)c2c1` ?
Response: 1.93

Request: Please look up its inhibition: `CN(C)CCOc1ccc(-c2cc(-c3ccc4c(c3)CCC4=NO)c(-c3ccncc3)o2)cc1`
Response: 0.33
